protocol summary: inhibitors of TNFa-induced NFkB p65 translocation, primary screen, imaging, HUVEC, MLSMR starter and 10KST1 sets (AID 438);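 note: compound added about 3h40 before a 20 min TNFalpha stimulation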
protocol conditions: HUVEC TNFa-induced p65 nuclear translocation; measured here: nuclei count (cytotoxicity indicator), at 2.08 µM
cell count: recorded values
Write the value as a bare number.

Worked set:
compound	cell count
CC(NS(=O)(=O)c1ccc(F)cc1)C(c1cccs1)N1CCN(C)CC1 (stereo not drawn)	390
Cc1ccc(NC(=O)c2ccco2)c(NC(=O)c2cccs2)c1	684
COc1cccc2cc(C(=O)C3=C(O)C(=O)N(CCCN4CCOCC4)C3c3ccncc3)oc12 (stereo not drawn)	463
COc1ccc(OC)c(NC(=O)CS(=O)(=O)Cc2nc(-c3ccccc3C)oc2C)c1	676
O=C(O)c1ccc2c(c1)C(=O)N(c1ccc(Cl)cn1)C2=O	675
O=C1CCCC2=C1C(c1cccs1)n1nc(SCc3ccccc3F)nc1N2 (stereo not drawn)	694
Cc1ccc(-n2ncc3c(=O)[nH]c(SC(C)C)nc32)cc1	716
C=CCn1c(SCC(=O)O)nnc1-c1cccc(Cl)c1	753

The value of cell count measured for the compound COC(=O)c1ccccc1NC(=O)CSc1nc2c(c(=O)n(C)c(=O)n2C)n1C turned out to be 470

The value of cell count measured for the compound COc1cccc(NC(=O)COC(=O)c2cccnc2)c1 turned out to be 354

The value of cell count measured for the compound CCOc1cc(NC(=O)c2ccco2)c(OCC)cc1NC(=O)Cc1cccc(OC)c1 turned out to be 592
